Target: p56^lck enzyme (Homo sapiens, UniProt P06239)
Sequence (P06239 whole entry): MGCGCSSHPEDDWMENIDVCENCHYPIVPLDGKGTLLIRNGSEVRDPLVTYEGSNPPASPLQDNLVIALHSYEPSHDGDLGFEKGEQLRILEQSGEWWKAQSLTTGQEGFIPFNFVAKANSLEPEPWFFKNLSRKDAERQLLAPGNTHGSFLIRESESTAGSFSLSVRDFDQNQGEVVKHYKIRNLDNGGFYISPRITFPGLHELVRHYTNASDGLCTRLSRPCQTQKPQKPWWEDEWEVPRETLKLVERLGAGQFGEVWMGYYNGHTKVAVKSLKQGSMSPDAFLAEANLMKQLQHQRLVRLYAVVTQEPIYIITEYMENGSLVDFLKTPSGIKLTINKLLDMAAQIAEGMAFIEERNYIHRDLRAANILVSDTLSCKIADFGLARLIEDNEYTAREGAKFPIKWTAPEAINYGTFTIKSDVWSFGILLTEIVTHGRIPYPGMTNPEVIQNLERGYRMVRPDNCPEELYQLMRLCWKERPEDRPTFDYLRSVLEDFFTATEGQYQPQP
Experimental Endpoint: IC50

• COc1cc2nccc(Oc3ccc(Cl)cc3F)c2cc1C(=O)NCCCN1CCOCC1 [Example 1] = ~30 nM

These measurements were taken from patent US6630489B1.
